test system: Plasmodium falciparum; assay: Antimalarial activity against chloroquine-sensitive Plasmodium falciparum D6 infected in erythrocytes assessed as inhibition of [3H]-hypoxanthine incorporation after 6 days; format: functional, organism-based
observation type: pIC50
Value format note: pIC50 is -log10 of concentration (mol/L); just state the number.

Solved entries:
**Query** Let me know recorded pIC50 for `CCOC(=O)[C@H](Cc1ccccc1)NP(=O)(CCN(CCC(=O)OC)CCn1cnc2c(=O)[nH]c(N)nc21)N[C@@H](Cc1ccccc1)C(=O)OCC` , thanks.
**Result** 4.93

**Query** Let me know recorded pIC50 for `CCOC(=O)[C@H](Cc1ccccc1)NP(=O)(CCN(CCn1cnc2c(=O)[nH]c(N)nc21)CP(=O)(N[C@@H](Cc1ccccc1)C(=O)OCC)N[C@@H](Cc1ccccc1)C(=O)OCC)N[C@@H](Cc1ccccc1)C(=O)OCC` , thanks.
**Result** 4.98

Next, consider the following compound.
**Query** Let me know recorded pIC50 for `CCOC(=O)[C@H](Cc1ccccc1)NP(=O)(CCN(CCn1cnc2c(=O)[nH]cnc21)CP(=O)(N[C@@H](Cc1ccccc1)C(=O)OCC)N[C@@H](Cc1ccccc1)C(=O)OCC)N[C@@H](Cc1ccccc1)C(=O)OCC` , thanks.
**Result** 5.33

* * *

test system: Plasmodium falciparum; assay: Antimalarial activity against chloroquine-resistant Plasmodium falciparum W2 infected in erythrocytes assessed as inhibition of [3H]-hypoxanthine incorporation after 6 days; assay type: functional, organism-based
Entries and their pIC50 values follow.
Value format note: pIC50 is -log10 of concentration (mol/L); just state the number.

Solved entries:
**Query** Report the value of pIC50 obtained on Plasmodium falciparum for `CCOC(=O)[C@H](Cc1ccccc1)NP(=O)(CCN(CCCC(=O)OC)CCn1cnc2c(=O)[nH]c(N)nc21)N[C@@H](Cc1ccccc1)C(=O)OCC` .
**Result** 5.24

**Query** Report the value of pIC50 obtained on Plasmodium falciparum for `CCOC(=O)[C@H](Cc1ccccc1)NP(=O)(CCN(CCC(=O)OC)CCn1cnc2c(=O)[nH]cnc21)N[C@@H](Cc1ccccc1)C(=O)OCC` .
**Result** 5.54

***
**Query** Report the value of pIC50 obtained on Plasmodium falciparum for `CC(C)OC(=O)[C@H](Cc1ccccc1)NP(=O)(CCN(CCOCc1ccccc1)CCn1cnc2c(=O)[nH]cnc21)N[C@@H](Cc1ccccc1)C(=O)OC(C)C` .
**Result** 5.55

**Query** Report the value of pIC50 obtained on Plasmodium falciparum for `CC(C)OC(=O)[C@H](Cc1ccccc1)NP(=O)(CCN(CCOCc1ccccc1)CCn1cnc2c(=O)[nH]c(N)nc21)N[C@@H](Cc1ccccc1)C(=O)OC(C)C` .
**Result** 5.54

**Query** Report the value of pIC50 obtained on Plasmodium falciparum for `CCOC(=O)[C@H](Cc1ccccc1)NP(=O)(CCN(CCCC#N)CCn1cnc2c(=O)[nH]cnc21)N[C@@H](Cc1ccccc1)C(=O)OCC` .
**Result** 5.26

* * *

assay: Cytotoxicity against human A549 cells after 4 days; format: cell-based
Please use 1 for CC50 at 96 h under 70 µM and -1 for everything else, ties included.

Answered examples (5):
**Query** Please determine if `CCOC(=O)[C@H](Cc1ccccc1)NP(=O)(CCN(CCCC#N)CCn1cnc2c(=O)[nH]cnc21)N[C@@H](Cc1ccccc1)C(=O)OCC` is below 70 µM in terms of CC50 at 96 h.
**Result** 1

**Query** Please determine if `CCOC(=O)[C@H](Cc1ccccc1)NP(=O)(CCN(CCn1cnc2c(=O)[nH]c(N)nc21)CP(=O)(N[C@@H](Cc1ccccc1)C(=O)OCC)N[C@@H](Cc1ccccc1)C(=O)OCC)N[C@@H](Cc1ccccc1)C(=O)OCC` is below 70 µM in terms of CC50 at 96 h.
**Result** -1

**Query** Please determine if `CCOC(=O)[C@H](Cc1ccccc1)NP(=O)(CCN(CCn1cnc2c(=O)[nH]cnc21)CCP(=O)(N[C@@H](Cc1ccccc1)C(=O)OCC)N[C@@H](Cc1ccccc1)C(=O)OCC)N[C@@H](Cc1ccccc1)C(=O)OCC` is below 70 µM in terms of CC50 at 96 h.
**Result** -1

**Query** Please determine if `CCOC(=O)[C@H](Cc1ccccc1)NP(=O)(CCN(CCn1cnc2c(=O)[nH]c(N)nc21)CCP(=O)(N[C@@H](Cc1ccccc1)C(=O)OCC)N[C@@H](Cc1ccccc1)C(=O)OCC)N[C@@H](Cc1ccccc1)C(=O)OCC` is below 70 µM in terms of CC50 at 96 h.
**Result** -1

**Query** Please determine if `CC(C)OC(=O)[C@H](Cc1ccccc1)NP(=O)(CCN(CCOCc1ccccc1)CCn1cnc2c(=O)[nH]c(N)nc21)N[C@@H](Cc1ccccc1)C(=O)OC(C)C` is below 70 µM in terms of CC50 at 96 h.
**Result** 1

API: the following record is the query input.
**Query** Please determine if `CCOC(=O)[C@H](Cc1ccccc1)NP(=O)(CCN(CCCC(=O)OC)CCn1cnc2c(=O)[nH]c(N)nc21)N[C@@H](Cc1ccccc1)C(=O)OCC` is below 70 µM in terms of CC50 at 96 h.
**Result** -1

* * *

test system: Plasmodium falciparum; test: Antimalarial activity against chloroquine-sensitive Plasmodium falciparum D6 infected in erythrocytes assessed as inhibition of [3H]-hypoxanthine incorporation after 6 days; assay type: functional, organism-based
Entries and their IC50 values follow.
Number in µM, nothing else.

**Query** Report the value of IC50 obtained on Plasmodium falciparum for `CCOC(=O)[C@H](Cc1ccccc1)NP(=O)(CCN(CCC(=O)OC)CCn1cnc2c(=O)[nH]cnc21)N[C@@H](Cc1ccccc1)C(=O)OCC` .
**Result** 3.5

**Query** Report the value of IC50 obtained on Plasmodium falciparum for `CCOC(=O)[C@H](Cc1ccccc1)NP(=O)(CCN(CCn1cnc2c(=O)[nH]c(N)nc21)CCP(=O)(N[C@@H](Cc1ccccc1)C(=O)OCC)N[C@@H](Cc1ccccc1)C(=O)OCC)N[C@@H](Cc1ccccc1)C(=O)OCC` .
**Result** 6.3

**Query** Report the value of IC50 obtained on Plasmodium falciparum for `CCOC(=O)[C@H](Cc1ccccc1)NP(=O)(CCN(CCCC(=O)OC)CCn1cnc2c(=O)[nH]c(N)nc21)N[C@@H](Cc1ccccc1)C(=O)OCC` .
**Result** 8.6

***
**Query** Report the value of IC50 obtained on Plasmodium falciparum for `CC(C)OC(=O)[C@H](Cc1ccccc1)NP(=O)(CCN(CCOCc1ccccc1)CCn1cnc2c(=O)[nH]cnc21)N[C@@H](Cc1ccccc1)C(=O)OC(C)C` .
**Result** 1.5

* * *

Entries and their IC50 values follow.
system: Plasmodium falciparum; test: Antimalarial activity against chloroquine-sensitive Plasmodium falciparum D6 infected in erythrocytes assessed as inhibition of [3H]-hypoxanthine incorporation after 6 days; type: functional, organism-based
Number in µM, nothing else.

Solved entries:
**Query** Report the value of IC50 obtained on Plasmodium falciparum for `CC(C)OC(=O)[C@H](Cc1ccccc1)NP(=O)(CCN(CCOCc1ccccc1)CCn1cnc2c(=O)[nH]c(N)nc21)N[C@@H](Cc1ccccc1)C(=O)OC(C)C` .
**Result** 1.6

**Query** Report the value of IC50 obtained on Plasmodium falciparum for `CCOC(=O)[C@H](Cc1ccccc1)NP(=O)(CCN(CCn1cnc2c(=O)[nH]cnc21)CCP(=O)(N[C@@H](Cc1ccccc1)C(=O)OCC)N[C@@H](Cc1ccccc1)C(=O)OCC)N[C@@H](Cc1ccccc1)C(=O)OCC` .
**Result** 3.1

***
**Query** Report the value of IC50 obtained on Plasmodium falciparum for `CCOC(=O)[C@H](Cc1ccccc1)NP(=O)(CCN(CCCC#N)CCn1cnc2c(=O)[nH]cnc21)N[C@@H](Cc1ccccc1)C(=O)OCC` .
**Result** 4.2

* * *

Entries and their IC50 values follow.
tested on: Plasmodium falciparum; experiment: Antimalarial activity against chloroquine-resistant Plasmodium falciparum W2 infected in erythrocytes assessed as inhibition of [3H]-hypoxanthine incorporation after 6 days; format: functional, organism-based
Number in µM, nothing else.

**Query** Let me know recorded IC50 for `CCOC(=O)[C@H](Cc1ccccc1)NP(=O)(CCN(CCn1cnc2c(=O)[nH]cnc21)CCP(=O)(N[C@@H](Cc1ccccc1)C(=O)OCC)N[C@@H](Cc1ccccc1)C(=O)OCC)N[C@@H](Cc1ccccc1)C(=O)OCC` , thanks.
**Result** 2.7

**Query** Let me know recorded IC50 for `CCOC(=O)[C@H](Cc1ccccc1)NP(=O)(CCN(CCn1cnc2c(=O)[nH]cnc21)CP(=O)(N[C@@H](Cc1ccccc1)C(=O)OCC)N[C@@H](Cc1ccccc1)C(=O)OCC)N[C@@H](Cc1ccccc1)C(=O)OCC` , thanks.
**Result** 1.6

***
**Query** Let me know recorded IC50 for `CCOC(=O)[C@H](Cc1ccccc1)NP(=O)(CCN(CCC(=O)OC)CCn1cnc2c(=O)[nH]c(N)nc21)N[C@@H](Cc1ccccc1)C(=O)OCC` , thanks.
**Result** 5.6

**Query** Let me know recorded IC50 for `CCOC(=O)[C@H](Cc1ccccc1)NP(=O)(CCN(CCn1cnc2c(=O)[nH]c(N)nc21)CP(=O)(N[C@@H](Cc1ccccc1)C(=O)OCC)N[C@@H](Cc1ccccc1)C(=O)OCC)N[C@@H](Cc1ccccc1)C(=O)OCC` , thanks.
**Result** 4.6

**Query** Let me know recorded IC50 for `CCOC(=O)[C@H](Cc1ccccc1)NP(=O)(CCN(CCn1cnc2c(=O)[nH]c(N)nc21)CCP(=O)(N[C@@H](Cc1ccccc1)C(=O)OCC)N[C@@H](Cc1ccccc1)C(=O)OCC)N[C@@H](Cc1ccccc1)C(=O)OCC` , thanks.
**Result** 7.4
